Where do these numbers come from? They come from ChEMBL document CHEMBL4390674.

Property: pKi; scope: individual compounds
Target: Beta-1 adrenergic receptor (Homo sapiens, UniProt P08588)
Sequence (P08588 whole entry): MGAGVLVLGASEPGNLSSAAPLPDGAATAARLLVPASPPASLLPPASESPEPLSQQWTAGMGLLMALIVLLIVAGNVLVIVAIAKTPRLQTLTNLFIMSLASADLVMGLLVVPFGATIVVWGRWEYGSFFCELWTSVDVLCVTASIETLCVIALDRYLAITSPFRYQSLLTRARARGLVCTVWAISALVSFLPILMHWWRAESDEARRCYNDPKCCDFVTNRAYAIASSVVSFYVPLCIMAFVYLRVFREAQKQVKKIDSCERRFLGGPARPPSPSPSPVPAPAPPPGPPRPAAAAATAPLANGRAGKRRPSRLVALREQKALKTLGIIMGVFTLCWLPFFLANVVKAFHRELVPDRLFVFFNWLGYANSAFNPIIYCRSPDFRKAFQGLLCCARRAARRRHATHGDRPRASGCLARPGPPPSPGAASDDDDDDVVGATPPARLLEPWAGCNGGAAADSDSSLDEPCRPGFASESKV
Test: Displacement of [125I]-pindolol from recombinant human beta1 adrenergic receptor expressed in CHO Flp-In cells measured after 90 mins by microbeta scintillation counting method
Format: cell-based
Convention used: pKi is expressed as -log10 of the molar concentration.

Data request: Which pKi reading was recorded for the compound FC(F)(F)c1cc(Oc2nccc3occc23)ccc1-c1cccc2nccn12 ?
Data returned: 5.07

----------
Assay: Cmax in Swiss albino mouse brain at 50 mg/kg, ip measured up to 4 hrs by LC-MC/MS analysis
Format: ADME, organism-based
Set-up: dose 50 mg/kg, route intraperitoneal
quantity-measured: Cmax (µM)
Please state the figure in µM; there is no need to write the unit.

Data request: Which Cmax reading was recorded for the compound Nc1cc(Oc2nccc3occc23)ccc1-c1cccc2nccn12 ?
Data returned: 100
